# measurement.notes: CCTE_Shafer_MEA_acute_cross_correlation_area: CCTE's Neural Acute Assay for Area of Cross Correlation, Shafer Lab (AID 2284024);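 further: area under pooled inter-electrode spike cross-correlation near zero lag as percent change from own baseline; curves fitted for loss of cross-correlation area so actives lower synchrony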
Activity calls are given as the source filed them. How the source made its calls: active means hit-call score of the fitted dose curve at least 0.9, where 1 is the maximum; inactive means score below 0.9.
Classes used: active, inactive

# compound, assigned.label
rows = [
    ("O=[N+]([O-])/N=C1\\NCCN1Cc1ccc(Cl)nc1", "inactive"),
    ("CNC(=O)CSP(=S)(OC)OC", "inactive"),
    ("Clc1ccccc1-c1nnc(-c2ccccc2Cl)nn1", "inactive"),
    ("O=C(O)CCCOc1ccc(Cl)cc1Cl", "inactive"),
    ("CC[C@H](C)[C@H]1O[C@]2(C=C[C@@H]1C)C[C@@H]1C[C@@H](C/C=C(\\C)[C@@H](O[C@H]3C[C@H](OC)[C@@H](O[C@H]4C[C@H](OC)[C@@H](O)[C@H](C)O4)[C@H](C)O3)[C@@H](C)/C=C/C=C3\\CO[C@@H]4[C@H](O)C(C)=C[C@@H](C(=O)O1)[C@]34O)O2 (tested in a mixture with another compound)", "active"),
    ("O=S(=O)(O)C(F)(F)C(F)(F)C(F)(F)C(F)(F)C(F)(F)C(F)(F)C(F)(F)C(F)(F)F", "inactive"),
    ("CCCN(CCC)c1c([N+](=O)[O-])cc(C(F)(F)F)cc1[N+](=O)[O-]", "inactive"),
    ("CNC(=O)/C=C(\\C)OP(=O)(OC)OC", "inactive"),
    ("O=C1c2ccccc2C(=O)N1SC(Cl)(Cl)Cl", "inactive"),
]

====

# measurement.notes: CCTE_Shafer_MEA_acute_burst_percentage_mean: CCTE's Neural Acute Assay for Percentage of Spikes in a Burst, Shafer Lab (AID 2284017)
Calls of active or inactive are those of the source. How the source made its calls: active means hit-call score of the fitted dose curve at least 0.9, where 1 is the maximum; inactive means score below 0.9.
Classes used: T for active, F for inactive

# molecular.string, assigned.label
measured = [
    ("CNC(=O)/C=C(\\C)OP(=O)(OC)OC", "F"),
    ("N#CN", "F"),
    ("N#Cc1c(Cl)c(Cl)c(Cl)c(C#N)c1Cl", "T"),
    ("O=[N+]([O-])/N=C1\\NCCN1Cc1ccc(Cl)nc1", "F"),
    ("CNC(=O)CSP(=S)(OC)OC", "F"),
    ("COP(=S)(OC)Oc1ccc(SC)c(C)c1", "T"),
    ("Clc1ccccc1-c1nnc(-c2ccccc2Cl)nn1", "F"),
    ("C[C@H]1[C@H](c2ccc(Cl)cc2)SC(=O)N1C(=O)NC1CCCCC1", "T"),
    ("Oc1ccc(Cl)cc1Cc1ccccc1", "T"),
]

====

# measurement.notes: CCTE_Shafer_MEA_acute_per_burst_spike_number_mean: CCTE's Neural Acute Assay for Average Number of Spikes Per Burst, Shafer Lab (AID 2284015);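 further: hits are decreases in mean spikes per burst versus baseline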
Active and inactive are the calls of the source. How the source made its calls: active means hit-call score of the fitted dose curve at least 0.9, where 1 is the maximum; inactive means score below 0.9.
Classes used: yes (1) = active, no (0) = inactive

# molecule, assigned.label
measured = [
    ("COP(=S)(OC)Oc1ccc(SC)c(C)c1", "no (0)"),
    ("N#Cc1c(Cl)c(Cl)c(Cl)c(C#N)c1Cl", "no (0)"),
    ("Clc1ccccc1-c1nnc(-c2ccccc2Cl)nn1", "no (0)"),
    ("O=C(O)CCCOc1ccc(Cl)cc1Cl", "no (0)"),
    ("CCCN(CCOc1c(Cl)cc(Cl)cc1Cl)C(=O)n1ccnc1", "yes (1)"),
    ("N#CN", "no (0)"),
    ("O=[N+]([O-])/N=C1\\NCCN1Cc1ccc(Cl)nc1", "no (0)"),
    ("CCCN(CCC)c1c([N+](=O)[O-])cc(C(F)(F)F)cc1[N+](=O)[O-]", "no (0)"),
    ("ClC1C(Cl)C(Cl)C(Cl)C(Cl)C1Cl (centres undefined)", "yes (1)"),
]
